Test system: Human immunodeficiency virus 1
PROTOCOL: Antiviral activity against wild-type HIV1 NL4-3 infected in human SupT1 cells infected with […] after 48 hrs by luciferase reporter assay
Format: functional, organism-based
REPORTED_CONDITIONS: Human immunodeficiency virus 1, NL4-3, 48 h
MEASURED_PARAMETER: EC50 (nM)
A number alone suffices; assume nM.

[ask] Given the entry COc1ccc(S(=O)(=O)N(CC(C)C)C[C@@H](O)[C@H](Cc2ccccc2)NC(=O)Cn2cc(C)c(=O)[nH]c2=O)cc1 , report its measured EC50.
[reply] 2500

[ask] Give its EC50 value. Item: COc1ccc(S(=O)(=O)N(CC(C)C)C[C@@H](O)[C@H](Cc2ccccc2)NC(=O)Cn2cc(F)c(=O)[nH]c2=O)cc1
[reply] 1070

[ask] If you can, please state the reported EC50 value of CC(C)CN(C[C@@H](O)[C@H](Cc1ccccc1)NC(=O)O[C@H]1CO[C@H]2OCC[C@H]21)S(=O)(=O)c1ccc(N)cc1 .
[reply] 6

[ask] Could you tell me which EC50 is on file for COc1ccc(S(=O)(=O)N(CC(C)C)C[C@@H](O)[C@H](Cc2ccccc2)NC(=O)Cn2ccc(=O)[nH]c2=O)cc1 ?
[reply] 270

---

Parameter 'readout' = IC50; parameter 'system' = Protease (Human immunodeficiency virus 1).
Sequence (Q9YQ12 whole entry): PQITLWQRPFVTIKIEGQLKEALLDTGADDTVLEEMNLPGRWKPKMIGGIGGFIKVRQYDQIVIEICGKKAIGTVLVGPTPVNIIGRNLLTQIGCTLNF
Please give a number only; it is taken to be in nM.

>>> recorded_result("CC(C)CN(C[C@@H](O)[C@H](Cc1ccccc1)NC(=O)Cn1ccc(=O)[nH]c1=O)S(=O)(=O)c1ccc(N)cc1")
20.1
>>> recorded_result("COc1ccc(S(=O)(=O)N(CC(C)C)C[C@@H](O)[C@H](Cc2ccccc2)NC(=O)Cn2cc(CO)c(=O)[nH]c2=O)cc1")
9.07
>>> recorded_result("Cc1cn(CC(=O)N[C@@H](Cc2ccccc2)[C@H](O)CN(CC(C)C)S(=O)(=O)c2ccc(N)cc2)c(=O)nc1N")
375
>>> recorded_result("COc1ccc(S(=O)(=O)N(CC(C)C)C[C@@H](O)[C@H](Cc2ccccc2)NC(=O)Cn2cccnc2=O)cc1")
10.3
>>> recorded_result("CC(C)CN(C[C@@H](O)[C@H](Cc1ccccc1)NC(=O)Cn1cc(F)c(=O)[nH]c1=O)S(=O)(=O)c1ccc(N)cc1")
16.3
>>> recorded_result("CC(C)CN(C[C@@H](O)[C@H](Cc1ccccc1)NC(=O)Cn1cccnc1=O)S(=O)(=O)c1ccc([N+](=O)[O-])cc1")
245

[ask] I have this compound here, COc1ccc(S(=O)(=O)N(CC(C)C)C[C@@H](O)[C@H](Cc2ccccc2)NC(=O)Cn2ccc(=O)[nH]c2=O)cc1 , and I need its recorded IC50.
[reply] 2.53

---

TEST_TARGET: UniProt:Q9YQ12
// log10(IC50) lookup, one value per entry
Values below are the log10 of the recorded IC50, with nM as the unit.

>>> recorded_result("CC(C)CN(C[C@@H](O)[C@H](Cc1ccccc1)NC(=O)Cn1cc(F)c(=O)[nH]c1=O)S(=O)(=O)c1ccc([N+](=O)[O-])cc1")
1.44
>>> recorded_result("COc1ccc(S(=O)(=O)N(CC(C)C)C[C@@H](O)[C@H](Cc2ccccc2)NC(=O)Cn2cc(C)c(=O)[nH]c2=O)cc1")
0.44
>>> recorded_result("Cc1cn(CC(=O)N[C@@H](Cc2ccccc2)[C@H](O)CN(CC(C)C)S(=O)(=O)c2ccc([N+](=O)[O-])cc2)c(=O)[nH]c1=O")
1.65
>>> recorded_result("COc1ccc(S(=O)(=O)N(CC(C)C)C[C@@H](O)[C@H](Cc2ccccc2)NC(=O)Cn2cc(F)c(=O)[nH]c2=O)cc1")
0.29

[ask] API: value(readout=log10(IC50), system=UniProt:Q9YQ12) for record CC(C)CN(C[C@@H](O)[C@H](Cc1ccccc1)NC(=O)Cn1cc(F)c(N)nc1=O)S(=O)(=O)c1ccc(N)cc1
[reply] 2.02

[ask] What measured log10(IC50) is associated with COc1ccc(S(=O)(=O)N(CC(C)C)C[C@@H](O)[C@H](Cc2ccccc2)NC(=O)Cn2cc(F)c(N)nc2=O)cc1 on UniProt:Q9YQ12?
[reply] 1.56

[ask] Request - read-out log10(IC50) | tested on UniProt:Q9YQ12 | compound CC(C)CN(C[C@@H](O)[C@H](Cc1ccccc1)NC(=O)Cn1ccc(=O)[nH]c1=O)S(=O)(=O)c1ccc([N+](=O)[O-])cc1
[reply] 1.30

[ask] Field: log10(IC50) (UniProt:Q9YQ12). Entry: COc1ccc(S(=O)(=O)N(CC(C)C)C[C@@H](O)[C@H](Cc2ccccc2)NC(=O)Cn2ccc(N)nc2=O)cc1
[reply] 0.96

[ask] Quick check: log10(IC50) on UniProt:Q9YQ12, item Cc1cn(CC(=O)N[C@@H](Cc2ccccc2)[C@H](O)CN(CC(C)C)S(=O)(=O)c2ccc(N)cc2)c(=O)[nH]c1=O ?
[reply] 1.29

---

CC50 at 24 h by entry:
PROTOCOL: Cytotoxicity against human 293T cells measured after 24 hrs by CCK8 assay
Format: cell-based
REPORTED_CONDITIONS: HEK-293T cells

Consider the reported CC50 at 24 h for these molecules:
>>> recorded_result("Cc1cn(CC(=O)N[C@@H](Cc2ccccc2)[C@H](O)CN(CC(C)C)S(=O)(=O)c2ccc(N)cc2)c(=O)nc1N")
"> 100 µM"
>>> recorded_result("Cc1cn(CC(=O)N[C@@H](Cc2ccccc2)[C@H](O)CN(CC(C)C)S(=O)(=O)c2ccc([N+](=O)[O-])cc2)c(=O)nc1N")
"> 100 µM"
>>> recorded_result("COc1ccc(S(=O)(=O)N(CC(C)C)C[C@@H](O)[C@H](Cc2ccccc2)NC(=O)Cn2cc(C)c(N)nc2=O)cc1")
"> 100 µM"
>>> recorded_result("COc1ccc(S(=O)(=O)N(CC(C)C)C[C@@H](O)[C@H](Cc2ccccc2)NC(=O)Cn2cc(CO)c(=O)[nH]c2=O)cc1")
"> 100 µM"
>>> recorded_result("COc1ccc(S(=O)(=O)N(CC(C)C)C[C@@H](O)[C@H](Cc2ccccc2)NC(=O)Cn2ccc(=O)[nH]c2=O)cc1")
"> 100 µM"

[ask] Can you share its CC50 at 24 h? I mean this molecule: CC(C)CN(C[C@@H](O)[C@H](Cc1ccccc1)NC(=O)Cn1cc(F)c(=O)[nH]c1=O)S(=O)(=O)c1ccc(N)cc1
[reply] 8.8 µM

[ask] Looking for the measured CC50 at 24 h of CC(C)CN(C[C@@H](O)[C@H](Cc1ccccc1)NC(=O)O[C@H]1CO[C@H]2OCC[C@H]21)S(=O)(=O)c1ccc(N)cc1 , can you help?
[reply] > 100 µM

---

PROTOCOL: Cytotoxicity against human 293T cells measured after 24 hrs by CCK8 assay
Format: cell-based
REPORTED_CONDITIONS: HEK-293T cells
MEASURED_PARAMETER: CC50 at 24 h

Observe how each entry below is paired with its result.
>>> recorded_result("CC(C)CN(C[C@@H](O)[C@H](Cc1ccccc1)NC(=O)Cn1ccc(N)nc1=O)S(=O)(=O)c1ccc([N+](=O)[O-])cc1")
"> 100 µM"
>>> recorded_result("CC(C)CN(C[C@@H](O)[C@H](Cc1ccccc1)NC(=O)Cn1cc(CO)c(=O)[nH]c1=O)S(=O)(=O)c1ccc(N)cc1")
"> 100 µM"

Next, consider the following compound.
[ask] Value lookup for CC50 at 24 h; key = Cc1cn(CC(=O)N[C@@H](Cc2ccccc2)[C@H](O)CN(CC(C)C)S(=O)(=O)c2ccc(N)cc2)c(=O)[nH]c1=O
[reply] > 100 µM
